System: M. tuberculosis H37Rv growth inhibition, 7H9 media
Assay Procedure: M. tuberculosis growth inhibition, HTS (AID 449762);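 further: bacterial growth assessed after seven days of incubation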
Condition Parameters: measured here: IC90 growth inhibition
Records with an inconclusive call do not appear.
Measured IC90 accompanies every entry in the list below.

# Molecule, IC90, µM
data = [
    ("CCN(Cc1ccccc1)c1ccc(/C=N/N=C(N)N)cc1", 30.1),
    ("N=C1C(c2nc3ccccc3[nH]2)=C(O)CN1NC(=O)c1c[nH]c2ccccc12", 30.7),
    ("CCc1ccc2c(c1)C1(C(=O)N2)N2CCCC2C(C(=O)c2ccc3ccccc3c2)C12C(=O)Nc1ccccc12 (stereo not drawn)", 30.9),
]

* * *

System: M. tuberculosis H37Rv growth inhibition, 7H9 media
Assay Procedure: M. tuberculosis growth inhibition, HTS (AID 449762);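 further: bacterial growth assessed after seven days of incubation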
Condition Parameters: measured here: IC90 growth inhibition
Inconclusive results are not listed.
Parameter Measured: IC90

# Molecule, Tested On, Reported Value
measured = [
    ("COCCOC(=O)c1ccc(NC(=O)COc2ccc([N+](=O)[O-])cc2)cc1", "M. tuberculosis H37Rv growth inhibition, 7H9 media", "> 100 µM"),
    ("Cc1ccc(NCc2ccc(O)c3ncccc23)cc1C", "M. tuberculosis H37Rv growth inhibition, 7H9 media", "> 100 µM"),
    ("COc1ccc(NC(C)C(=O)Nc2ccc(C(C)(C)C)cc2)cc1Cl (stereo not drawn)", "M. tuberculosis H37Rv growth inhibition, 7H9 media", "> 100 µM"),
]

* * *

Tested on: M. tuberculosis H37Rv growth inhibition, 7H9 media
Assay Procedure: M. tuberculosis growth inhibition, HTS (AID 449762);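 further: bacterial growth assessed after seven days of incubation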
Condition Parameters: measured here: IC90 growth inhibition
Records with an inconclusive call do not appear.
Parameter Measured: IC90

# Compound, Reported Value
measured = [
    ("CCOC(=O)c1ccc(N=C2SC(C(=O)Nc3ccc(C(=O)O)cc3)CC(=O)N2Cc2cccs2)cc1 (centres undefined)", "> 100 µM"),
    ("O=C(O)/C=C/C(=O)Nc1ccc(-c2ccccc2)cc1", "> 100 µM"),
    ("COc1cc2[nH]c3c(N4CCN(c5ccccn5)CC4)ncnc3c2cc1OC", "> 50 µM"),
    ("Cc1nn(-c2ccccc2)c(C)c1/C=N/NC(=O)c1cc(-c2cccc3ccccc23)n[nH]1", "> 100 µM"),
]

* * *

System: M. tuberculosis H37Rv growth inhibition, 7H9 media
Assay Procedure: M. tuberculosis growth inhibition, HTS (AID 449762);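 further: bacterial growth assessed after seven days of incubation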
Condition Parameters: measured here: IC90 growth inhibition
Inconclusive results are not listed.
Parameter Measured: IC90 (µM)

# Compound, Parameter Measured, Measure Unit, Value Operator, Reported Value
measured = [
    ("CSc1ccc(CNC(=O)C2Cc3cc(S(=O)(=O)N4CCCCC4)ccc3N2C(C)=O)cc1 (stereo not given)", "IC90", "µM", ">", 50),
    ("O=C(c1ccc([N+](=O)[O-])s1)N1CCN(c2ccc(C(F)(F)F)cn2)CC1", "IC90", "µM", "<", 0.2),
    ("Cc1cc(/C=N/n2cnnc2)c(C)n1-c1ccc(OCc2ccc(Cl)cc2Cl)cc1", "IC90", "µM", "=", 15.8),
    ("CCCC(/C=C/c1ccc(OC(C)=O)cc1)=C1/c2ccccc2C(=O)N1c1ccccc1", "IC90", "µM", "=", 16.1),
    ("O=C(Nc1nc2ccccc2[nH]1)C12CC3CC(CC(C3)C1)C2", "IC90", "µM", "=", 34.5),
    ("CC(C)(C)OC(=O)NNC(=S)NC1CCCCC1", "IC90", "µM", "=", 23.8),
    ("O=c1c2c(-c3ccccc3)csc2ncn1/N=C/c1ccc(O)c([N+](=O)[O-])c1", "IC90", "µM", "=", 52.9),
    ("Cc1nn(Cc2ccccc2Cl)c2sc(C(=O)NCCCn3ccnc3)cc12", "IC90", "µM", "=", 49.5),
    ("Cc1ccc(-c2ccc(C3C(C#N)=C(N)Oc4n[nH]c(C)c43)o2)cc1 (stereo not given)", "IC90", "µM", "=", 52),
    ("Cc1[nH]n(S(=O)(=O)Cc2ccccc2)c(=O)c1N=Nc1ccccc1Cl", "IC90", "µM", "=", 8.53),
    ("O=C(Nc1ccc(Cl)cc1)N(C1=NCCC1)c1ccc(OC(F)F)cc1", "IC90", "µM", "=", 70.9),
    ("Cc1ccc(/C=N/NC(=S)NC(C)C)o1", "IC90", "µM", "=", 47.9),
    ("O=C(OCC(=O)N1CCN(c2ccccc2)CC1)c1cnc(Cl)c(Cl)c1", "IC90", "µM", "=", 41.7),
    ("O=C(/C=C/c1cc(Br)ccc1O)c1ccco1", "IC90", "µM", "=", 13.4),
    ("COCCN(C(=O)C1CC(=O)N(Cc2ccccc2)C1)c1nc(-c2ccc([N+](=O)[O-])cc2)cs1 (stereo not given)", "IC90", "µM", "=", 25.4),
    ("Cc1c(Cl)cccc1-c1ccc(CNCc2ccccn2)o1", "IC90", "µM", "=", 4.03),
    ("O=c1[nH]c(CN2CC=C(c3ccccc3)CC2)nc2cc(C(F)(F)F)ccc12", "IC90", "µM", "=", 86),
    ("CC1(C)c2[nH]c3ccccc3c2C[C@@H]2C(=O)N(Cc3ccccc3F)C(=O)N21", "IC90", "µM", ">", 100),
    ("COc1cc2c(cc1NC(=O)CN1C(=O)NC3(CCc4ccccc43)C1=O)oc1ccccc12 (stereo not given)", "IC90", "µM", ">", 100),
    ("C/C(=N\\NC(N)=S)c1ccc(Cl)s1", "IC90", "µM", "=", 17.7),
    ("COc1ccc(-c2c(C#N)c(SCC(=O)c3cc4ccccc4oc3=O)nc(C)c2C(=O)Nc2ccccc2)cc1", "IC90", "µM", "=", 75.6),
    ("CCOc1ccc(N2CC(=O)Nc3ccccc3NCC2=O)cc1", "IC90", "µM", "=", 78.2),
    ("CCCCC(=O)/C=C/n1c(=S)oc2ccccc21", "IC90", "µM", ">", 100),
    ("C/C(=N\\NC(=O)c1ccc(O)cc1)c1ccc2c(c1)Nc1ccccc1S2", "IC90", "µM", "=", 62.8),
    ("CC(=O)N1C(Nc2ccc(Cl)cc2)CCN1c1ccccc1 (stereo not given)", "IC90", "µM", ">", 100),
    ("COc1ccccc1-c1cc(C(=O)NC2CCN(C)CC2)c2ccc(Cl)c(C)c2n1", "IC90", "µM", "=", 95),
    ("CC1C/C(=C\\c2cccnc2)C(=O)/C(=C/c2cccnc2)C1 (stereo not given)", "IC90", "µM", "=", 8.85),
    ("CNC(=S)/N=C/NOCc1c(Cl)cccc1Cl", "IC90", "µM", "=", 12.9),
    ("NC(N)=Nc1nc(-c2ccccc2)c2ccccc2n1", "IC90", "µM", "=", 87.9),
    ("Nc1ccc2c(c1)oc1ccccc12", "IC90", "µM", ">", 100),
    ("CCCCCC(O)c1cccc(OCc2ccc3ccccc3n2)c1 (stereo not given)", "IC90", "µM", "=", 50.5),
    ("O=C(c1ccco1)N1CCN(C(=O)C2CC(c3ccc(Cl)c(Cl)c3)=NO2)CC1 (stereo not given)", "IC90", "µM", "=", 11),
    ("COc1ccc(N2C(=O)C(Cl)=C(Nc3ccccc3O)C2=O)cc1", "IC90", "µM", "=", 25.7),
    ("CCOc1cc(/C=C\\[N+](=O)[O-])ccc1OCC(=O)Nc1ccccc1C", "IC90", "µM", "=", 33.8),
    ("CC(NCCCOc1cccc2ccccc12)c1ccccc1 (stereo not given)", "IC90", "µM", "=", 31.3),
]

* * *

Measured IC90 accompanies every entry in the list below.
Test system: M. tuberculosis H37Rv growth inhibition, 7H9 media
Assay Procedure: M. tuberculosis growth inhibition, HTS (AID 449762);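 further: bacterial growth assessed after seven days of incubation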
Condition Parameters: measured here: IC90 growth inhibition
Results filed as inconclusive are left out.
Parameter Measured: IC90 (µM)

# Molecule, Parameter Measured, Value Operator, Reported Value
records = [
    ("CN(C(=O)COC(=O)/C=C/c1ccc(Cl)c(Cl)c1)c1c(N)n(Cc2ccccc2)c(=O)[nH]c1=O", "IC90", ">", 100),
    ("O=c1c2cc(-c3ccccc3)sc2ncn1/N=C/c1ccco1", "IC90", ">", 100),
    ("Cc1nc(N)nc(N)c1CCCc1ccc(Cl)c(Cl)c1", "IC90", ">", 100),
    ("CCOC(=O)c1ccc(N=Cc2c(O)c3ccccc3oc2=O)cc1", "IC90", ">", 100),
    ("CC1(C)Cc2c(cnn2-c2ccccc2)-c2c1c1ccccc1n2CC(O)CCl (configuration not stated)", "IC90", ">", 100),
    ("Cc1cc(Nc2ccccc2)c2c([N+](=O)[O-])ccc(C)c2n1", "IC90", ">", 100),
    ("O=c1c2ccc(Cl)cc2nc(-c2ccc([N+](=O)[O-])cc2)n1O", "IC90", ">", 100),
    ("CC(=O)Oc1ccc(/C=N\\NC(=O)c2cc3c(ccc4ccccc43)o2)cc1", "IC90", ">", 100),
    ("COC(=O)c1cc(/C=C/c2ccccc2)on1", "IC90", ">", 100),
    ("COc1ccccc1NC(=O)CN1CCN(CC(=O)Nc2ccc3c(c2)OCO3)CC1", "IC90", "=", 33.6),
    ("COc1ccccc1C(CNC(=O)C(C)(C)Oc1ccc(Cl)cc1)N1CCCC1 (configuration not stated)", "IC90", "=", 26.5),
    ("Cc1ccc(C)c(C2C(=O)c3ccccc3C2=O)c1", "IC90", "=", 16.3),
    ("Cc1ccc(C)c(-c2nn(-c3cc(N4CCN(CCO)CC4)ccc3[N+](=O)[O-])c(=O)c3ccccc23)c1", "IC90", "=", 28.7),
    ("CC(C)(O)[C@H]1O[C@H]2CC[C@@]3(C)[C@@](O)(CC[C@H]4Cc5c([nH]c6ccccc56)[C@@]43C)C2=CC1=O", "IC90", "=", 63.9),
    ("O=C(/C=C/Sc1ncn[nH]1)c1ccc(Cl)cc1", "IC90", "=", 43.8),
    ("CC1CCC(NC(=O)c2cc3c(s2)CCCC3)CC1 (configuration not stated)", "IC90", "=", 57.1),
    ("CCc1cccc2c(=O)c(C(=O)N3CCOCC3)c[nH]c12", "IC90", "=", 14.2),
    ("Cc1cc(Nc2cc(Cl)nc(Sc3ccc(NC(=O)C4CC4)cc3)n2)n[nH]1", "IC90", "=", 45.1),
    ("CCOC(=O)N1CCC(N2Cc3cccc(C(=O)Nc4ccc(N(CC)CC)cc4C)c3C2=O)CC1", "IC90", "=", 50.5),
    ("NC1=NC[C@H](CC2CCCCC2)N1CCc1cc(C(F)(F)F)cc(C(F)(F)F)c1", "IC90", "=", 11.6),
    ("Cc1ccc(C)c(NNC(N)=S)c1", "IC90", "=", 15.6),
    ("CCN(CC)S(=O)(=O)c1ccc2[nH]cc(C(=O)NCCC3=CCCCC3)c(=O)c2c1", "IC90", ">", 100),
    ("CC1(CCc2ccccc2)NC(=S)N(c2ccc(Cl)cc2)N1 (configuration not stated)", "IC90", ">", 100),
    ("CC(C)CNC(=S)NC(=O)c1csc([N+](=O)[O-])c1", "IC90", "=", 15.1),
    ("CCCCSCCCNC(=O)c1cn(CC)c2ccc(S(=O)(=O)N3CCOCC3)cc2c1=O", "IC90", "=", 44.9),
    ("COc1ccc(C2=Nn3c(nnc3-c3ccccc3F)SC2)cc1OC1CCCC1", "IC90", "=", 19.6),
    ("O=C1C2C(C(=O)N1/N=C/c1ccc([N+](=O)[O-])o1)C1C=CC2C12CC2 (configuration not stated)", "IC90", "=", 29.6),
    ("N#CC(C#N)=c1ccc2c(c1)N1C3=C(CCCC3)CC3CCCCC31N=2 (configuration not stated)", "IC90", "=", 13.1),
    ("Cc1ccc(C(c2nnnn2Cc2cccs2)N2CCN(Cc3ccc4c(c3)OCO4)CC2)cc1 (configuration not stated)", "IC90", "=", 27.9),
    ("O=C(CCSc1ccccn1)c1ccccc1", "IC90", "=", 19.1),
    ("Cn1cc(NC(=O)CCl)cn1", "IC90", "=", 8.63),
    ("CCOC(=O)c1ccccc1NC(=O)COc1coc(CN2CCc3ccccc32)cc1=O", "IC90", "=", 38.2),
]
